Test system: T. cruzi (amastigotes)
Test: T. cruzi amastigote growth assay
Assay type: cell-based, Trypanosoma cruzi
Conditions: read-out: T. cruzi growth EC50; intracellular amastigotes; means ± SD, n = 3
Entries and their EC50 values follow.

MOL_SMILES	EC50
N#CSCCOc1cccc(Oc2ccccc2F)c1	7.01 µM
O=P(O)(O)C(CSCCOc1cccc(Oc2ccccc2)c1)P(=O)(O)O	> 10 µM
O=P(O)(O)C(CNCCOc1ccccc1)P(=O)(O)O	> 10 µM

Form: molecule = N#CSCCOc1cccc(Oc2ccc(F)cc2)c1 ; EC50 = 5.69 µM

Input O=P(O)(O)C(CSCCOc1ccc(Oc2ccccc2)cc1)P(=O)(O)O . Output EC50: > 20 µM

----------
Items are presented alongside their recorded pIC50.
Molecular target: TcFPPS (Trypanosoma cruzi, UniProt Q8WS26)
Sequence (Q8WS26 1-425): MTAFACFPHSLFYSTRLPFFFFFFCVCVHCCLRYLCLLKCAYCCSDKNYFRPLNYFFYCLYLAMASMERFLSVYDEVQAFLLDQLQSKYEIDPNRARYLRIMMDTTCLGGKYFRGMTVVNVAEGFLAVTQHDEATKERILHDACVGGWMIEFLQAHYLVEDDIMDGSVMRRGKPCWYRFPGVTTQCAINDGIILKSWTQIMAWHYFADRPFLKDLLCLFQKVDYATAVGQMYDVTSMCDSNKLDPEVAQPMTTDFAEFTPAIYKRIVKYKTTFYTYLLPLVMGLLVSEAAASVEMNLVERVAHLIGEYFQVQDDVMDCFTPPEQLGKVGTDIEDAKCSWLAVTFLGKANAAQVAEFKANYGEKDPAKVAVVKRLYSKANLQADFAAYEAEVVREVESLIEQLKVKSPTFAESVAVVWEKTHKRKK
Experiment: TcFPPS enzyme inhibition
Assay type: biochemical
Conditions: read-out: TcFPPS IC50; means ± SD, n = 3
# log scale: pIC50 equals minus log10 of the concentration in mol/L

MOL_SMILES	VALUE
O=P(O)(O)C(CSCCOc1ccc(Oc2ccccc2)cc1)P(=O)(O)O	6.10

Just so you know, measured pIC50 for O=P(O)(O)C(CNCCOc1ccccc1)P(=O)(O)O came out at 6.49

----------
Test system: T. cruzi (amastigotes)
Assay: T. cruzi amastigote growth assay
Assay type: cell-based, Trypanosoma cruzi
Details: read-out: T. cruzi growth EC50; intracellular amastigotes; means ± SD, n = 3
pEC50: −log10 of the molar value.
Recorded pEC50 values for a group of molecules are listed next.

Past entries and their recorded results:
MOLECULE	ASSAY_TARGET	pEC50
N#CSCCOc1cccc(Oc2cccc(F)c2)c1 [Compound 21]	T. cruzi (amastigotes)	5.27
O=P(O)(O)C(CNCCOc1cccc(Oc2ccccc2)c1)P(=O)(O)O [Compound 53]	T. cruzi (amastigotes)	< 5.00

Moving on to another molecule below.
Record O=P(O)(O)C(CNCCOc1ccc(Oc2ccccc2)cc1)P(=O)(O)O [Compound 43] . Reported pEC50: < 5.00

----------
# EC50 annotations
Experiment: Cytotoxicity for Vero cells
Type: cell-based
Settings: African green monkey

Measured EC50, N#CSCCOc1cccc2ccccc12 [Compound 73, 2-(Naphthalen-1-yloxy)ethyl Thiocyanate] : 7.5 µM

The measured EC50 associated with N#CSCCOc1ccc(Oc2ccncc2)cc1 [Compound 31, 4-(4-pyridyl)oxyphenoxyethyl Thiocyanate] reads > 200 µM

Form field EC50, entry N#CSCCOc1cccc(Oc2cccc(F)c2)c1 : > 50 µM

The value of EC50 measured for the molecule N#CSCCOc1cccc(Oc2ccccc2F)c1 turned out to be > 60 µM

molecule N#CSCCOc1ccc(Oc2ccccc2F)cc1 , EC50 observed: > 55 µM

The measured EC50 associated with N#CSCCOc1cccc(Oc2ccc(F)cc2)c1 reads > 55 µM
